Data provenance is patent US20260327191A1.

Biological target: GSK3A (Homo sapiens)
Sequence (P49840 whole entry): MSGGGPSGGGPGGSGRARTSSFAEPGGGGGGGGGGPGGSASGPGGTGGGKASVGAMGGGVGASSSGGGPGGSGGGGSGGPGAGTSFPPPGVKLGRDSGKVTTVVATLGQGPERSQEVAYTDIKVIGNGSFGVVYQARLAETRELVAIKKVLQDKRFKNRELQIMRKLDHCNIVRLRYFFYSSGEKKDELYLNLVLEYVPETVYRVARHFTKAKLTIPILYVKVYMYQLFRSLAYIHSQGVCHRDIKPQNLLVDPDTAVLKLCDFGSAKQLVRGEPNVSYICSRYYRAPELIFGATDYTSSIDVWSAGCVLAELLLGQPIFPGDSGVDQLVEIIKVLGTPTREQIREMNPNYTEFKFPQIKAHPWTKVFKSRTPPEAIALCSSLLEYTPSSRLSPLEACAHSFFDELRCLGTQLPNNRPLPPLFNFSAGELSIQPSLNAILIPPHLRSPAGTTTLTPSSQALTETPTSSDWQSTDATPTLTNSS
Assay: NanoBRET cellular target engagement assay, Nanoluc-GSK3A in HEK293 cells
Conditions: NanoBRET GSK3α IC50, HEK293 cells, tracer K-8, 2 hours, 37° C
Counter-ions that a name gives are not always drawn.
TEST_READOUT: IC50 (nM)

Previously resolved entries follow.
INSERT INTO results (compound, test_readout, reported_result) VALUES
  ('CN[C@@H](C)c1cncc(NC(=O)c2c(N)ncn(-c3c(Cl)cc(OC4CC4)cc3Cl)c2=O)c1 (single isomer, unassigned) [Example 195]', 'IC50', 5.4),
  ('CNC(COC)c1cncc(NC(=O)c2c(N)ncn(-c3c(Cl)cc(C(F)(F)F)cc3Cl)c2=O)c1 (single isomer, unassigned) [Example 122]', 'IC50', 5),
  ('CCOc1cc(C)c(-n2cnc(N)c(C(=O)Nc3cnnc(C(N)=O)c3)c2=O)c(C)c1 [Example 29]', 'IC50', 79.2),
  ('Nc1ncn(-c2c(Cl)cc(OC(F)F)cc2Cl)c(=O)c1C(=O)Nc1cccc([C@@H]2CCCN2)c1 [Example 193]', 'IC50', 6.8),
  ('Nc1ncn(-c2c(Cl)cccc2Cl)c(=O)c1C(=O)Nc1cccc(C2CCCN2)c1F (single isomer, unassigned) [Example 167]', 'IC50', 27.2);

(P) CCNCc1cncc(NC(=O)c2c(N)ncn(-c3c(Cl)cc(C(=O)OC)cc3Cl)c2=O)c1 [Example 198]
(Q) CC(C)Oc1cc(Cl)c(-n2cnc(N)c(C(=O)Nc3cncc([C@@H]4CCCCN4)c3)c2=O)c(Cl)c1 [Example 124]
Query block: Could you determine which record has the numerically smaller IC50? Candidates: P and Q Answer = label.
Result block: P

(P) COCc1cc(C)c(-n2cnc(N)c(C(=O)Nc3cncc(C4CCC(C)N4)c3)c2=O)c(C)c1 (single isomer, unassigned) [Example 101]
(Q) COc1cc(Cl)c(-n2cnc(N)c(C(=O)Nc3cc(F)cc([C@H]4CCCCN4)c3)c2=O)c(Cl)c1 (single isomer, unassigned) [Example 222]
Query block: Looking at recorded values for IC50, does P or Q come in lower? Give the label of your selection.
Result block: Q
(Q: 4.6 nM, P: 7.8 nM)

(I) Cc1cc([C@@H](C)F)cc(C)c1-n1cnc(N)c(C(=O)Nc2cncc([C@H]3CCCCN3)c2)c1=O (single isomer, unassigned) [Example 185]
(II) Cc1cc(C(F)(F)F)cc(C)c1-n1cnc(N)c(C(=O)Nc2cncc(C3CCCCCN3)c2)c1=O (single isomer, unassigned) [Example 89]
Query block: Consider entries I and II . Which has the numerically lower IC50? Choose, then provide that item's label.
Result block: I

(P) Cc1cc(C(F)(F)F)cc(C)c1-n1cnc(N)c(C(=O)Nc2cncc([C@H]3CCCCN3)c2)c1=S [Example 162, trifluoroacetate]
(Q) COCc1cc(C)c(-n2cnc(N)c(C(=O)Nc3cncc(C4(N)CCC4)c3)c2=O)c(C)c1 [Example 157]
Query block: Hi! Which is lower in terms of IC50, the first one P or the second one Q ? Response format: the label of the selected entry.
Result block: P

----------
Biological target: GSK3A (Homo sapiens)
Test: NanoBRET cellular target engagement assay, Nanoluc-GSK3A in HEK293 cells
Conditions: NanoBRET GSK3α IC50, HEK293 cells, tracer K-8, 2 hours, 37° C
pIC50: −log10 of the molar value. Structures can show the parent of a compound that is named as a salt.
TEST_READOUT: pIC50

INSERT INTO results (compound, experimental_system, test_readout, reported_result) VALUES
  ('CCOCC(N)c1cncc(NC(=O)c2c(N)ncn(-c3c(Cl)cc(OCC)cc3Cl)c2=O)c1 (single isomer, unassigned)', 'GSK3A (Homo sapiens)', 'pIC50', 8.04),
  ('COc1c(CN)cccc1NC(=O)c1c(N)ncn(-c2c(Cl)cccc2Cl)c1=O [Example 221, trifluoroacetate]', 'GSK3A (Homo sapiens)', 'pIC50', 8.14),
  ('CCNCc1cncc(NC(=O)c2c(N)ncn(-c3c(Cl)cccc3Cl)c2=O)c1', 'GSK3A (Homo sapiens)', 'pIC50', 8.21);

(I) Nc1ncn(-c2c(Cl)cc(C(F)(F)F)cc2Cl)c(=O)c1C(=O)Nc1cncc([C@@H]2CCCN2)c1
(II) COCc1cc(Cl)c(-n2cnc(N)c(C(=O)Nc3cncc(C4(N)CCC4)c3)c2=O)c(Cl)c1
Query block: Lower pIC50: I or II ? Selection: enter the item's label.
Result block: I
(I: 8.03, II: 8.51)

----------
Target: UniProt:P49840
Assay: NanoBRET cellular target engagement assay, Nanoluc-GSK3A in HEK293 cells
Settings: NanoBRET GSK3α IC50, HEK293 cells, tracer K-8, 2 hours, 37° C
Procedure: In the assay, HEK293 cells stably expressing either Nanoluc-GSK3A or Nanoluc-GSK3B were maintained in culture media and seeded, using a multidrop dispenser, at a density of 5×10^3 cells per well in 384-well white plates with 100 ng/ml doxycycline (Sigma) overnight. Compound was first diluted in DMSO to generate a 9-point serial dilution then diluted to 10× final concentration in Opti-MEM™ (Gibco). […]
TEST_READOUT: IC50 (nM)

(a) CCCOc1cc(C)c(-n2cnc(N)c(C(=O)Nc3cncc([C@H]4CCCCN4)c3)c2=O)c(C)c1
(b) Cc1cc(C(F)(F)F)cc(C)c1-n1cnc(N)c(C(=O)Nc2cncc(C3CCC(C)N3)c2)c1=O (single isomer, unassigned)
(c) COCc1cc(C)c(-n2cnc(N)c(C(=O)Nc3cncc([C@H]4CCC[C@H](C)N4)c3)c2=O)c(C)c1 (single isomer, unassigned)
(d) Cc1cc(CC(=O)O)cc(C)c1-n1cnc(N)c(C(=O)Nc2cncc([C@H]3CCCCN3)c2)c1=O
Query block: Could you list the above compounds by IC50, going from the biggest number down? Use the labels to give the ranking in the order requested.
Result block: d, b, c, a
(d: 966 nM, b: 7.6 nM, c: 5 nM, a: 2.7 nM)

----------
Molecular target: GSK3B (Homo sapiens)
Sequence (P49841 whole entry): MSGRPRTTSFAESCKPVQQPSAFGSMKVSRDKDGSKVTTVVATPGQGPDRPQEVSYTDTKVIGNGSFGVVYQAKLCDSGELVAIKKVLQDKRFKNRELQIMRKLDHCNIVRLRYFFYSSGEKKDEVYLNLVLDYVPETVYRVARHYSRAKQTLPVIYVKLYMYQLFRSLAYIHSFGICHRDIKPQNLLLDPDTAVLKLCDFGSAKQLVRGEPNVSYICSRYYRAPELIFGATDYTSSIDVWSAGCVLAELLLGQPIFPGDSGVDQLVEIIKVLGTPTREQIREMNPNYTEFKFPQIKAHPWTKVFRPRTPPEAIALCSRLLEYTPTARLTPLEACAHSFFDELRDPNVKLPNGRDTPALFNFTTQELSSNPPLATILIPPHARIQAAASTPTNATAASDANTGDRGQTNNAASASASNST
Test: NanoBRET cellular target engagement assay, Nanoluc-GSK3B in HEK293 cells
Assay type: cell-based
Parameters: expressed in transfected cells
Conditions: NanoBRET GSK3β IC50, HEK293 cells, tracer K-8, 2 hours, 37° C
pIC50: −log10 of the molar value. Where a name gives a salt, the structure may show the parent alone.
TEST_READOUT: pIC50

INSERT INTO measurements (compound, reported_result) VALUES
  ('CCOc1cc(Cl)c(-n2cnc(N)c(C(=O)Nc3cncc(C(C)N)c3)c2=O)c(Cl)c1 (single isomer, unassigned) [Example 142]', 6.46),
  ('Cc1cc(CC(F)F)cc(C)c1-n1cnc(N)c(C(=O)Nc2cncc(C(C)N)c2)c1=O (single isomer, unassigned) [Example 144]', 6.43),
  ('CN[C@H](C)c1cc(F)cc(NC(=O)c2c(N)ncn(-c3c(Cl)cccc3Cl)c2=O)c1 [Example 6, trifluoroacetate]', 6.45),
  ('Nc1ncn(-c2c(Cl)cc(F)cc2Cl)c(=O)c1C(=O)Nc1cncc([C@@H]2CCCN2)c1 [Example 149]', 6.29),
  ('CCOC[C@H](N)c1cncc(NC(=O)c2c(N)ncn(-c3c(Cl)cc(COC)cc3Cl)c2=O)c1 (single isomer, unassigned) [Example 69]', 6.29),
  ('Cc1cc(C(F)(F)F)cc(C)c1-n1cnc(N)c(C(=O)Nc2cncc(C3CCCCCN3)c2)c1=O (single isomer, unassigned) [Example 89]', 6.31);

----------
Target: human GSK3α (Homo sapiens)
Construct: Full length human GSK3α or GSK3B expressed as N-terminal GST fusion proteins; GST (N); purchased Carna Biosciences (Japan); host or cells: baculovirus host
Sequence (P49840 whole entry, the tested form may be a part): as the sequence (P49840 whole entry) above
Assay: In vitro enzymatic activity assay, GSK3α
Type: biochemical
Settings: 1.0 mM ATP, 1.0 μM peptide substrate, 120 min, 25° C, read-out: Enzyme GSK3α (IC50)
pIC50: −log10 of the molar value. Structures can show the parent of a compound that is named as a salt.
TEST_READOUT: pIC50

INSERT INTO assay_data (compound, reported_result) VALUES
  ('Cc1cc(CCF)cc(C)c1-n1cnc(N)c(C(=O)Nc2cncc(C(C)N)c2)c1=O (single isomer, unassigned)', 8.00),
  ('NCc1cccc(NC(=O)c2c(N)ncn(-c3c(Cl)cccc3Cl)c2=O)c1OC(F)F [Example 170, trifluoroacetate]', 7.66);

(I) CCC(N)c1cncc(NC(=O)c2c(N)ncn(-c3c(C)cc(COC)cc3C)c2=O)c1 (single isomer, unassigned)
(II) CNC(COC)c1cncc(NC(=O)c2c(N)ncn(-c3c(Cl)cc(C(F)(F)F)cc3Cl)c2=O)c1 (single isomer, unassigned) [Example 121]
(III) CCOCc1cc(Cl)c(-n2cnc(N)c(C(=O)Nc3cncc(C(N)CC)c3)c2=O)c(Cl)c1 (single isomer, unassigned)
Query block: Ascending by pIC50, please. List the labels in the requested order.
Result block: I, II, III
(I: 7.83, II: 8.42, III: 8.68)

(a) COc1cc(Cl)c(-n2cnc(N)c(C(=O)Nc3cncc([C@@H]4CCCN4)c3)c2=O)c(Cl)c1
(b) Nc1ncn(-c2c(Cl)cncc2Cl)c(=O)c1C(=O)Nc1cncc([C@H]2CCCCN2)c1
Query block: Sort a and b by pIC50 descending and give the first. Answer by stating the label of the chosen item.
Result block: b
